# Target system: pooled human IgG (human IgG1, 2, 3 and 4)
Outcome measure: Enzyme Activity Endpoint Assay (purified): Fab′2 (ng/µL)
Answers are plain numbers, in ng/µL.

Note down Enzyme Activity Endpoint Assay (purified): Fab′2 recorded for PRT-684 (protein) MQITSVWTKGVTPLTPEQFTNNNEDVIHAPYLANQGWYDITKTFNGKDNLLCGAATAGNMLHWWFDQNKEEIEAYLKKHPEKQKIIFNNQELFDLKKAIDTKDSQTNSALFNYFRDKAFPNLSARQLGVMPDLVLDMFINGYYLNVFKTQSTDVNRPYQTKDKRGGIFDAVFTRGDQTTLLTARHDLKNKGLNEISDIIKQELTEGKALALSHTYANVSISHVINLWGADFNAEGNLIAIYVTDSDANASIGMKKYFVGVNSHGKVAISAKKIEGENIGAQVLGLFTLSSGQDIWQKLSLEHHHHHH
1060

Cited source: patent US20250027068
